- method notes: Toxicity liver stage against HepG2, at 10uM
- Type: cell-based
- Design: test concentration 10 uM, cell line HepG2-A16-CD81EGFP
- assay context: human, HepG2-A16-CD81EGFP cells; read-out: INHIBITION
result type: cytotoxicity at 10 µM

# annotated cases, reported cytotoxicity at 10 µM shown
[[record]]
molecule = "CCc1nc(CN2CCOC(CN(CC)c3cccnn3)C2)cs1 (configuration not stated)"
result_type = "cytotoxicity at 10 µM"
reported = "3.09%"

[[record]]
molecule = "Cc1cc(N(C)CCn2ccnc2C)n2nccc2n1"
result_type = "cytotoxicity at 10 µM"
reported = "4.09%"

[[record]]
molecule = "O=C(Cc1cccs1)N1C[C@@H]2OCCN(CC3CCCO3)[C@@H]2C1 (some centres not stated)"
result_type = "cytotoxicity at 10 µM"
reported = "-11%"

[[record]]
molecule = "CC(C)N1C(=O)C[C@H]2[C@@H]1CCN2C(=O)c1ccco1"
result_type = "cytotoxicity at 10 µM"
reported = "-99%"

[[record]]
molecule = "O=C1CC2(CCCCN2C(=O)c2ccccc2)CN1CC1CC1 (configuration not stated)"
result_type = "cytotoxicity at 10 µM"
reported = "3.85%"

[[record]]
molecule = "CC(C)N1CCCC(C(=O)N2CCN(c3cccc(C(=O)O)c3)CC2)C1 (configuration not stated)"
result_type = "cytotoxicity at 10 µM"
reported = "9.45%"

[[record]]
molecule = "CCCNC(=O)C1CCN(CC2(O)CCC(C)CC2)CC1 (configuration not stated)"
result_type = "cytotoxicity at 10 µM"
reported = "4.55%"

[[record]]
molecule = "CCC1CN(CC(=O)NCCN(CC)CC)c2ccccc2S1 (configuration not stated)"
result_type = "cytotoxicity at 10 µM"
reported = "-1.23%"

[[record]]
molecule = "CC(C)OCCCNC(=O)CS(=O)(=O)Cc1ccc(Cl)cc1"
result_type = "cytotoxicity at 10 µM"
reported = "-2.87%"

[[record]]
molecule = "OC(COCc1ccccc1Cl)CN1CC(n2cccn2)C1 (configuration not stated)"
result_type = "cytotoxicity at 10 µM"
reported = "-7.7%"


For this molecule ( CCc1nnc(C2Cc3ccccc3CN2Cc2cc(C)no2)o1 (configuration not stated) ), measured cytotoxicity at 10 µM is -7.4%

For this molecule ( CC(NC(=O)NCCCn1cccn1)c1ccncc1 (configuration not stated) ), measured cytotoxicity at 10 µM is 15.3%
